Tested on: SB.msgc-1
procedureDetails: area under the dose-response curve of % viability (trapezoidal, 11 doses) (% viability x log10 concentration); higher = less cytotoxic
measurementContext: SB.msgc-1 (sporadic gastric cancer)
Counter-ions that a name gives are not always drawn.
Decision: area under the dose-response curve >= 500 yields True, all other cases yield False.

NC\1=N\C(=O)N(\C=C1)[C@@H]2O[C@H](CO)[C@@H](O)[C@@H]2O [Cytarabine] (top concentration 46.0829 µM); False
CNC1[C@@H](O)C(O[C@@H]2C(O)C(O[C@H]3O[C@H]([C@@H](C)NC)CC[C@H]3N)[C@@H](N)C[C@H]2N)OC[C@]1(C)O (stereo partly specified) [Gentamycin sulfate] (top concentration 46.0829 µM); False
COc1cc2nc(-c3cc(F)ccc3O)nc(N[C@@H]3CNC[C@H]3C(C)(C)O)c2cc1OC (top concentration 46.0829 µM); False
NC(=O)c1noc([C@H](CCCC2CCCCC2)CC(=O)NO)n1 (top concentration 46.0829 µM); True

====

Test system: SB.msgc-1
procedureDetails: viability at highest tested concentration (MAXR) relative to DMSO; higher = less cytotoxic
measurementContext: SB.msgc-1 (sporadic gastric cancer)
Counter-ions that a name gives are not always drawn.
measurementLabel: viability (%)

OC[C@H]1O[C@H]([C@H](O)[C@@H]1O)N2\C=C/C(=O)NC2=O [Uridine] (top concentration 46.0829 µM); 115
CC[N+](CC)(CC)CCOc1cccc(OCC[N+](CC)(CC)CC)c1OCC[N+](CC)(CC)CC [Gallamine triethiodide] (top concentration 46.0829 µM); 108
Cc1cccc(CN2CCN(C(c3ccccc3)c3ccc(Cl)cc3)CC2)c1 (configuration not stated) [Meclizine hydrochloride] (top concentration 46.0829 µM); 41.1
CN(C)CC[C@H](c1ccc(Cl)cc1)c1ccccn1 [Chlorphenamine maleate] (top concentration 46.0829 µM); 49.2
CCC(C)SSc1ncc[nH]1 (configuration not stated) [PX-12] (top concentration 46.0829 µM); 4.17
N[S+]([O-])(=O)C1=CC=C(NC/2=C/C(=O)C3=CC=CC=C3C2=O)C=C1 (top concentration 46.0829 µM); 34.2
CCOc1cc(CC(=O)N[C@@H](CC(C)C)c2ccccc2N2CCCCC2)ccc1C(=O)O [Repaglinide] (top concentration 46.0829 µM); 119
O=C(NC1CCNCC1)c1n[nH]cc1NC(=O)c1c(Cl)cccc1Cl [AT-7519] (top concentration 46.0829 µM); 40.8
C/C(O)=C(\C#N)C(=O)Nc1cc(Br)ccc1Br [LFM-A13] (top concentration 46.0829 µM); 74
CC(N[C@H]1CCCC[C@@H]1NC(=O)c1ccc(Cl)cc1)c1cccc2ccccc12 (some centres not stated) [Calhex 231] (top concentration 46.0829 µM); 42.8
COC(=O)Nc1ccc(-c2nc(N3CCOCC3)c3cnn(C4CCN(Cc5cccnc5)CC4)c3n2)cc1 [WYE-687] (top concentration 46.0829 µM); 46.2
CC(/C=C1\SC(=S)N(CC(=O)O)C1=O)=C\c1ccccc1 [Epalrestat] (top concentration 46.0829 µM); 104
CC(C)n1nc(-c2cc3cc(O)ccc3[nH]2)c2c(N)ncnc21 [PP-242] (top concentration 46.0829 µM); 29.3
Cc1cn([C@@H]2O[C@H](CO)[C@@H](O)[C@@H]2F)c(=O)[nH]c1=O [Clevudine] (top concentration 46.0829 µM); 111
CC(=O)OC[C@@H]1O[C@H]([C@H](OC(C)=O)[C@@H]1OC(C)=O)N2\C=C/C(=O)NC2=O [Uridine triacetate] (top concentration 46.0829 µM); 112
CC[C@H](C)C(=O)O[C@H]1C[C@H](O)\C=C2\C=C/[C@H](C)[C@H](CC[C@@H](O)C[C@@H](O)CC(O)=O)[C@@H]12 [Pravastatin sodium] (top concentration 46.0829 µM); 91.1
C[C@@H](O)[C@@H]1[C@H]2[C@@H](C)\C(=C(/N2C1=O)C(=O)OCOC(=O)C(C)(C)C)SC3CN(C3)/C4=N/CCS4 [Tebipenem pivoxil] (top concentration 46.0829 µM); 91.9
